Molecular target: T1, TNFR1 (Homo sapiens, UniProt P19438)
T1 chain: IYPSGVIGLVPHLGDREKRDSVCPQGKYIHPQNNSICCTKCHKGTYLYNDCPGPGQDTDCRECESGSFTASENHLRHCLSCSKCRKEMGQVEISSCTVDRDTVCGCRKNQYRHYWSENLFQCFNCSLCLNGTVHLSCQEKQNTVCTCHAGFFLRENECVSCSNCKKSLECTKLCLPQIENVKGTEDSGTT
Assay: yeast display SC50
Attribute measured: apparent Kd (screen) (nM)

[a] K17H (designed binder) SMEEEVEKAAKEYEKKHKEAIEKHLEKLKAKDKEAAERFLKELEEAAKEYAKDEAKTMSEEEAKRRAKKYKEKVLLSELSEEEQKEIKEAEEKLVRTILKYVEEAAK
[b] L40W (designed binder) SMEEEVEKAAKEYEKKKKEAIEKHLEKLKAKDKEAAERFWKELEEAAKEYAKDEAKTMSEEEAKRRAKKYKEKVLLSELSEEEQKEIKEAEEKLVRTILKYVEEAAK
Input line: Lower apparent Kd (screen): a or b ? Please indicate the selected item by its label.
Output line: b
(b: 0.49 nM, a: 0.869 nM)

Origin of measurements: paper PMC12416549
